# PROTOCOL_DETAILS: Thermodynamic solubility test
# Format: physicochemical
# TEST_CONTEXT: phosphate buffer saline (PBS), aqueous buffer, thermodynamic from solid; PBS pH 7.4, incubated overnight at room temperature; read-out: Solubility PBS (pH 7.4)
QUANTITY_NAME: solubility (mg/mL)

N#Cc1cc(OCCN2CCOCC2)ccc1-c1ccc(CC(=O)NCc2ccccc2)nc1 [Compound I-27]    0.0857

[P] O=C(Cc1ccc(-c2ccc(OCCNC3CN(C(=O)CC4CC4)C3)cc2)cn1)NCc1ccccc1 [Compound I-26]
[Q] C[C@@H]1COCCN1CCOc1ccc(-c2ccc(CC(=O)NCc3ccccc3)nc2)c(F)c1 [Compound I-24B]
Query string: So which one has the bigger solubility here, P or Q ? Response format: the label of the selected entry.
Result string: P
